Test system: Plasmodium berghei
Assay: Luciferase/luciferin-expressing antifolate-resistant parasites were used to infect a culture of HepG2 cells that were pre-incubated with compounds. Infected hepatocytes emit light due to the luciferase reaction. Assay results are presented as the percent inhibition of light emission compared to control. […]
Type: functional
Conditions: sporozoite, HEPG2TOX_HILL_SLOPE 4.74, 0.999, HEPG2TOX_R_SQUARED 0.925, 0.982, PBLUC_HILL_SLOPE 1.70, 2.23, PBLUC_R_SQUARED 0.381, 0.812, read-out: LUCIFERASE INFECTION ASSAY - IC50
MEASURED_ATTRIBUTE: pIC50
Units for pIC50: none; it is -log10 of a concentration expressed in mol/L.

Which pIC50 value is on record for "O=C(c1c[nH]c(-c2ccnc(N3CCCC3)c2)c1)c1cc(Cl)ccc1O" ?
6.22
